From: patent US20180086804A1

- STUDY SYSTEM: T1, HLA-DR11 (HLA-DRB1*11:01) (human)
- T1 construct: mature; purified from homozygous EBV-transformed lymphoblastoid cells with antibody L243
- PROTOCOL DESCRIPTION: competition ELISA vs biotin-HA 306-318;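 also: HLA and competitor incubated 24 to 72 h, maximal signal taken from wells lacking competitor, background from wells lacking HLA molecule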
No end group written: not given here.
I'd appreciate it if you could supply relative affinity values for the items below.
Number only, please.

Record DWLVQVQMKFRLLQE-NH2 [CCNB1 207-221] . Reported relative affinity: 0.4

Record SQIAAGAFCLALKIL-NH2 [CCNB1 342-356] . Reported relative affinity: 3

Record SEYVKDIYAYLRQLE-NH2 [CCNB1 168-182] . Reported relative affinity: 3

Record PTLQHYLSYTEESLL-NH2 [CCNB1 363-377] . Reported relative affinity: 45

Record QHYLSYTEESLLPVM-NH2 [CCNB1 366-380] . Reported relative affinity: 55
